Source: ChEMBL document CHEMBL1201862

log10 of GI50 values, listed per item
Test system: HCT-116
Assay: NCI tumour cell line growth inhibition, 48 h
In all, about 57,000 sequences went through this assay and about 5,100 (8.9%) were called active. The list is a sample of the results. Potency and affinity values are given separately.
REPORTED ENDPOINT: log10 of GI50 (log10 of the value in µM)

{"SUBSTANCE": "[Bis(aminomethyl)tetramethylenesilane]dichloropaltinum(II), CHEMBL2146205", "TARGET SYSTEM": "HCT-116", "MEAS VALUE": 1.06}
{"SUBSTANCE": "CISPLATIN, CHEMBL11359", "TARGET SYSTEM": "HCT-116", "MEAS VALUE": 0.61}
{"SUBSTANCE": "mu-(1,7-nanodiamine-N,N')bis-(cis-aminedichloroplatimum (II)), CHEMBL2146215", "TARGET SYSTEM": "HCT-116", "MEAS VALUE": 1.62}
{"SUBSTANCE": "[Bis(aminomethyl)diethylsilane]tetrachloroplatinum(IV), CHEMBL2146203", "TARGET SYSTEM": "HCT-116", "MEAS VALUE": 0.60}
{"SUBSTANCE": "[Bis(aminomethyl)pentamethylenesilane]tetrachloropaltinum(IV), CHEMBL2146204", "TARGET SYSTEM": "HCT-116", "MEAS VALUE": 0.05}
{"SUBSTANCE": "[Bis(aminomethyl)dimethylsilane]tetrachloroplatinum(IV), CHEMBL2146190", "TARGET SYSTEM": "HCT-116", "MEAS VALUE": 0.94}
